test system: K562/ADM adriamycin resistant cell line; assay: MTT cell growth inhibition by adriamycin with or without compound 1, K562/ADM; assay type: cell-based, human; details: Homo sapiens, K562, K562/ADM, without compound 1, n = 1; read-out: 50% cell growth inhibiting concentration (IC50) of adriamycin
Property measured: IC50

- COc1cccc2c1C(=O)c1c(O)c3c(c(O)c1C2=O)C[C@@](O)(C(=O)CO)C[C@@H]3O[C@H]1C[C@H](N)[C@H](O)[C@H](C)O1 [adriamycin]: 1150 nM

* * *

system: K562 human promyelocytic leukemia cell line; experiment: MTT cell growth inhibition by adriamycin with or without compound 1, K562; format: cell-based; settings: K562, K562, without compound 1, n = 1, read-out: 50% cell growth inhibiting concentration (IC50) of adriamycin
Property measured: IC50 (nM)

* COc1cccc2c1C(=O)c1c(O)c3c(c(O)c1C2=O)C[C@@](O)(C(=O)CO)C[C@@H]3O[C@H]1C[C@H](N)[C@H](O)[C@H](C)O1 [adriamycin] | 8
